STUDY_SYSTEM: AKT2 (Homo sapiens, UniProt P31751)
Construct: expressed in transfected cells; host or cells: HEK293
Sequence (P31751 whole entry): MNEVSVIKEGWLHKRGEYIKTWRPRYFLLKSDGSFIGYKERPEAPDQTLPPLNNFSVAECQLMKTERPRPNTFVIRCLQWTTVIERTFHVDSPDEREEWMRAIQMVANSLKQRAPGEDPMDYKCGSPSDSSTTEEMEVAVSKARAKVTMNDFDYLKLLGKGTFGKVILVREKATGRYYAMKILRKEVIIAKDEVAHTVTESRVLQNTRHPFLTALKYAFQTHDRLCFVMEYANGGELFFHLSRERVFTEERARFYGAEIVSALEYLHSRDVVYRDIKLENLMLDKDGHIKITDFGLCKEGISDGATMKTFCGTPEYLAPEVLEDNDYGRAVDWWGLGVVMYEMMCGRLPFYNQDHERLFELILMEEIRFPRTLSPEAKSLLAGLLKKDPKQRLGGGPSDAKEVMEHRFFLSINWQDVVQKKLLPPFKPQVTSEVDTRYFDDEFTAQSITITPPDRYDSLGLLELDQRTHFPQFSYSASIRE
ASSAY_TEXT: Live cell AKT2 target engagement by NanoBRET competitive probe displacement
Assay type: cell-based
MEASUREMENT_SETUP: HEK293 cells transfected with kinase-NanoLuciferase fusion, 2 h at 37° C.
PARAMETER_MEASURED: IC50 (nM)
Numbers only; they are read as nM.

Completed entries (count: 2):
C=CC(=O)N1CCC(N[C@@H]2c3ccc(-n4c(-c5ccccc5)nc5ccc(-n6ccc(F)n6)nc54)cc3CC2F)CC1 (stereo partly drawn); 481
C=CC(=O)N1CCC(N[C@H]2CCc3cc(-n4c(-c5cccnc5N)nc5ccc(N6CC[C@H](F)C6)nc54)ccc32)CC1; 68.9

Moving on to another molecule below.
Tell me the measured IC50 of C=CC(=O)N1CCC(NC2c3ccc(-n4c(-c5cccnc5N)nc5ccc(-n6cccn6)nc54)cc3CC2O)CC1 (single isomer, unassigned) [Example 150] , please. 781
